- TARGET_OR_TEST_SYSTEM: UniProt:P51686
- PROTOCOL_DESCRIPTION: FLIPR calcium flux assay using MOLT4 cells, TECK stimulation
- Format: cell-based
- EXPERIMENTAL_SETUP: MOLT4 cells (human T-cell line)
pKi: −log10 of the molar value.
EXPERIMENTAL_ENDPOINT: pKi

These solved cases illustrate the format of a correct answer.
CC(C)(C)c1ccc(S(=O)(=O)Nc2ccc(Cl)c3c2C(=O)N(Cc2cccc(C#N)c2)C3=O)cc1: 6.80
Cc1cnc(C#N)c(N2C(=O)c3c(Cl)ccc(NS(=O)(=O)c4ccc(C(C)(C)C)cc4)c3C2=O)c1: 7.74
CC(C)(C)c1ccc(S(=O)(=O)Nc2ccc(Cl)c3c2C(=O)N(c2cn[nH]c2)C3=O)cc1: 7.44
CC(C)(C)c1ccc(S(=O)(=O)Nc2ccc(C#N)c3c2C(=O)N(C2CCOCC2)C3=O)cc1: 7.55

(P) COc1ncc(C)cc1N1C(=O)c2c(Cl)ccc(NS(=O)(=O)c3ccc(C(C)(C)C)cc3)c2C1=O
(Q) O=C1c2c(Cl)ccc(NS(=O)(=O)c3ccc(OC(F)F)cc3)c2C(=O)N1c1cccnc1
Query: # argmax over pKi for candidates P and Q Let me know the label of the one you choose.
Result: P

---

- TARGET_OR_TEST_SYSTEM: CCR9 (Homo sapiens (Human), UniProt P51686)
- Sequence (P51686 whole entry): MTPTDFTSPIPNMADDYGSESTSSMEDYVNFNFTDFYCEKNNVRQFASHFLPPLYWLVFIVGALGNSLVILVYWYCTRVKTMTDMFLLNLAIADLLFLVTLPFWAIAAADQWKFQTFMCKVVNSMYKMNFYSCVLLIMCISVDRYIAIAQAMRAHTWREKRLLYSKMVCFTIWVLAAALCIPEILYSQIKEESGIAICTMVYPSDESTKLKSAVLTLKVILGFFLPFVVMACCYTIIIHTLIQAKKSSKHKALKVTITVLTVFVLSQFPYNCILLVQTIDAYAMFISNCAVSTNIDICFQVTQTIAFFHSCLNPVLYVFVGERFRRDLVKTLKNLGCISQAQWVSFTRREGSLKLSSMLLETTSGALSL
- PROTOCOL_DESCRIPTION: FLIPR calcium flux assay using MOLT4 cells, TECK stimulation
- Format: cell-based
- EXPERIMENTAL_SETUP: MOLT4 cells (human T-cell line)
EXPERIMENTAL_ENDPOINT: Ki (nM)

CC(C)(C)c1ccc(S(=O)(=O)Nc2ccc(C#N)c3c2C(=O)N(Cc2ccccn2)C3=O)cc1 [Compound 279]: 18
Cn1cc(N2C(=O)c3c(Cl)ccc(NS(=O)(=O)c4ccc(C(C)(C)C)cc4)c3C2=O)ccc1=O [Compound 282]: 9
CC(C)c1ccc(S(=O)(=O)Nc2ccc(Cl)c3c2C(=O)N(c2cn[nH]c2)C3=O)cc1 [Compound 151]: 42
Cc1ccncc1N1C(=O)c2c(Cl)ccc(NS(=O)(=O)c3ccc(C(C)(C)C)cc3)c2C1=O [Compound 185]: 7
CC(C)(C)c1ccc(S(=O)(=O)Nc2ccc(Cl)c3c2C(=O)N(Cc2ccccn2)C3=O)cc1 [Compound 191]: 20

(a) COc1cncc(CN2C(=O)c3c(Cl)ccc(NS(=O)(=O)c4ccc(C(C)(C)C)cc4)c3C2=O)c1 [Compound 212]
(b) Cc1ccc(N2C(=O)c3c(Cl)ccc(NS(=O)(=O)c4ccc(C(C)(C)C)cc4)c3C2=O)cn1 [Compound 182]
(c) O=C1c2cccc(NS(=O)(=O)c3ccc(F)c(C(F)(F)F)c3)c2C(=O)N1c1cccnc1 [Compound 8]
(d) CCOc1nc(C)ccc1CN1C(=O)c2c(Cl)ccc(NS(=O)(=O)c3ccc(C(C)(C)C)cc3)c2C1=O [Compound 246]
Query: Could you please order the items by Ki, going from the lowest number to the highest? Use the labels to give the requested order.
Result: b, a, d, c
(b: 19 nM, a: 59 nM, d: 125 nM, c: 1320 nM)

(a) CCOc1cc(N2C(=O)c3c(Cl)ccc(NS(=O)(=O)c4ccc(C(C)(C)C)cc4)c3C2=O)c[n+]([O-])c1 [Compound 197]
(b) CC(C)(C)c1ccc(S(=O)(=O)Nc2ccc(Cl)c3c2C(=O)N(Cc2cc[n+]([O-])cc2)C3=O)cc1 [Compound 209]
(c) N#Cc1cccc(N2C(=O)c3cccc(NS(=O)(=O)c4ccc(Cl)c(C(F)(F)F)c4)c3C2=O)c1 [Compound 41]
Query: Could you please order the items by Ki, going from the lowest number to the highest? Use the labels to give the requested order.
Result: a, b, c

---

- TARGET_OR_TEST_SYSTEM: UniProt P51686
- PROTOCOL_DESCRIPTION: FLIPR calcium flux assay using MOLT4 cells, TECK stimulation
- Assay type: cell-based
- EXPERIMENTAL_SETUP: MOLT4 cells (human T-cell line)
EXPERIMENTAL_ENDPOINT: Ki (nM)

These solved cases illustrate the format of a correct answer.
COc1ccc(N2C(=O)c3c(Cl)ccc(NS(=O)(=O)c4ccc(C(C)(C)C)cc4)c3C2=O)c(C)[n+]1[O-]: 34
CC(C)(C)c1ccc(S(=O)(=O)Nc2ccc(C#N)c3c2C(=O)N(Cc2cccc(C#N)c2)C3=O)cc1: 153
CC(C)(C#N)c1ccc(S(=O)(=O)Nc2ccc(Cl)c3c2C(=O)N(Cc2ccc[n+]([O-])c2)C3=O)cc1: 148
Cn1nccc1N1C(=O)c2c(Cl)ccc(NS(=O)(=O)c3ccc(C(C)(C)C)cc3)c2C1=O: 3

(I) COc1cnc(N2C(=O)c3c(Cl)ccc(NS(=O)(=O)c4ccc(C(C)(C)C)cc4)c3C2=O)cc1C
(II) CC(C)(C)c1ccc(S(=O)(=O)Nc2ccc(Cl)c3c2C(=O)N(c2ccc[n+]([O-])c2)C3=O)cc1
(III) O=C1c2cccc(NS(=O)(=O)c3ccc(Cl)c(C(F)(F)F)c3)c2C(=O)N1c1cccnc1
(IV) Cc1cnc(N2C(=O)c3c(Cl)ccc(NS(=O)(=O)c4ccc(C(C)(C)C)cc4)c3C2=O)cn1
(V) CC(C)(C)c1ccc(S(=O)(=O)Nc2ccc(Cl)c3c2C(=O)N(Cc2ccncc2)C3=O)cc1
Query: List these items ordered by Ki, big to small. Use the labels to give the requested order.
Result: III, I, IV, II, V

---

- TARGET_OR_TEST_SYSTEM: CCR9 (Homo sapiens (Human))
- PROTOCOL_DESCRIPTION: FLIPR calcium flux assay using MOLT4 cells, TECK stimulation
- Type: cell-based
- EXPERIMENTAL_SETUP: MOLT4 cells (human T-cell line)
- Method: Biological Activity: FLIPR Assay Using MOLT4 Cells A calcium flux assay was used to determine the ability of the compounds to interfere with the binding between CCR9 and its chemokine ligand (TECK) in MOLT4 cells (a human T-cell line). […] The increased in intracellular calcium levels was measured with the FLIPR instrument. The potency of the compound as CCR9 antagonist was calculated as an IC50 using GraphPad Prism software (variable slope four parameter). […]
pKi: −log10 of the molar value.
EXPERIMENTAL_ENDPOINT: pKi

COc1ccc(N2C(=O)c3c(Cl)ccc(NS(=O)(=O)c4ccc(C(C)(C)C)cc4)c3C2=O)c[n+]1[O-]: 7.11

(1) COC(=O)c1sccc1N1C(=O)c2c(Cl)ccc(NS(=O)(=O)c3ccc(C(C)(C)C)cc3)c2C1=O
(2) CC(C)c1ccc(S(=O)(=O)Nc2ccc(Cl)c3c2C(=O)N(Cc2cccnc2)C3=O)cc1
Query: Hey, which is lower on measured pKi, 1 or 2 ? Let me know the label of the one you choose.
Result: 2

---

- TARGET_OR_TEST_SYSTEM: CCR9 (Homo sapiens (Human))
- PROTOCOL_DESCRIPTION: FLIPR calcium flux assay using MOLT4 cells, TECK stimulation
- Format: cell-based
- EXPERIMENTAL_SETUP: MOLT4 cells (human T-cell line)
pKi: −log10 of the molar value.
EXPERIMENTAL_ENDPOINT: pKi

These solved cases illustrate the format of a correct answer.
Cc1cc(CN2C(=O)c3c(Cl)ccc(NS(=O)(=O)c4ccc(C(C)(C)C)cc4)c3C2=O)c[n+]([O-])c1: 7.34
N#Cc1cccc(N2C(=O)c3cccc(NS(=O)(=O)c4ccc(OC(F)(F)F)cc4)c3C2=O)c1: 5.87
Cc1ccc(CN2C(=O)c3c(Cl)ccc(NS(=O)(=O)c4ccc(C(C)(C)C)cc4)c3C2=O)cn1: 7.07
CC(C)(C)c1cccc(S(=O)(=O)Nc2cccc3c2C(=O)N(Cc2cccnc2)C3=O)c1: 5.81
Cn1nnc(N2C(=O)c3c(Cl)ccc(NS(=O)(=O)c4ccc(C(C)(C)C)cc4)c3C2=O)n1: 7.35
CC(C)(C)c1ccc(S(=O)(=O)Nc2ccc(Cl)c3c2C(=O)N(c2cc(C#N)ccn2)C3=O)cc1: 7.35

(I) CCOC(=O)c1c(N2C(=O)c3c(Cl)ccc(NS(=O)(=O)c4ccc(C(C)(C)C)cc4)c3C2=O)ccc[n+]1[O-]
(II) COc1cncc(N2C(=O)c3c(Cl)ccc(NS(=O)(=O)c4ccc(OC(F)(F)F)cc4)c3C2=O)c1
Query: Hey, which is lower on measured pKi, I or II ? Let me know the label of the one you choose.
Result: II

---

- TARGET_OR_TEST_SYSTEM: CCR9 (Homo sapiens (Human), UniProt P51686)
- PROTOCOL_DESCRIPTION: FLIPR calcium flux assay using hCCR9 over expressed cells (Chem1-hCCR9), TECK stimulation
- Format: cell-based
- EXPERIMENTAL_SETUP: Chem1-hCCR9 overexpressing cells
pKi: −log10 of the molar value.
EXPERIMENTAL_ENDPOINT: pKi

These solved cases illustrate the format of a correct answer.
CC(C)(C)c1ccc(S(=O)(=O)Nc2ccc(Cl)c3c2C(=O)N(c2cccnn2)C3=O)cc1: 7.23
Cc1ccncc1CN1C(=O)c2c(Cl)ccc(NS(=O)(=O)c3ccc(C(C)(C)C)cc3)c2C1=O: 7.80
COc1ccc[n+]([O-])c1N1C(=O)c2c(Cl)ccc(NS(=O)(=O)c3ccc(C(C)(C)C)cc3)c2C1=O: 7.21
CC(C)(C)c1ccc(S(=O)(=O)Nc2ccc(Cl)c3c2C(=O)N(c2cccnc2C(=O)O)C3=O)cc1: 8.00
CCOC(=O)c1c(N2C(=O)c3c(Cl)ccc(NS(=O)(=O)c4ccc(C(C)(C)C)cc4)c3C2=O)ccc[n+]1[O-]: 7.85

(A) Cc1cnc(C#N)c(N2C(=O)c3c(Cl)ccc(NS(=O)(=O)c4ccc(C(C)(C)C)cc4)c3C2=O)c1
(B) CC(C)(C)c1ccc(S(=O)(=O)Nc2ccc(Cl)c3c2C(=O)N(Cc2ccccn2)C3=O)cc1
(C) COc1cncc(N2C(=O)c3c(Cl)ccc(NS(=O)(=O)c4ccc(C(C)(C)C)cc4)c3C2=O)c1C
Query: Could you please order the items by pKi, going from the lowest number to the highest? Use the labels to give the requested order.
Result: C, B, A

(P) CC(C)(C)c1ccc(S(=O)(=O)Nc2ccc(Cl)c3c2C(=O)N(c2cnccn2)C3=O)cc1
(Q) O=C1c2cccc(NS(=O)(=O)c3ccc(C(F)(F)F)cc3)c2C(=O)N1c1cccnc1
Query: # argmax over pKi for candidates P and Q Let me know the label of the one you choose.
Result: P
(P: 7.62, Q: 5.25)
